Experiment: physchem
Details: aqueous solution
Description: Compound was evaluated for quinoline pKa value in aqueous solution at 25 degree Celsius by spectrophotometry
Metric: pKa
Answer field: number only, no words.

Request: Entry `CN(C)CCN(C)c1ccnc2cccc([N+](=O)[O-])c12` has what pKa?
Result: 4.86

Request: Entry `CN(C)CCCCNc1ccnc2cccc([N+](=O)[O-])c12` has what pKa?
Result: 6.71

Request: Entry `Cc1cc(NCCCN(C)C)c2c([N+](=O)[O-])cccc2n1` has what pKa?
Result: 6.41

Request: Entry `Cc1cnc2cccc([N+](=O)[O-])c2c1NCCCN(C)C` has what pKa?
Result: 6.01

Request: Entry `CN(C)CCNc1ccnc2cccc([N+](=O)[O-])c12` has what pKa?
Result: 5.77

Request: Entry `CN(C)CCCNc1ccnc2c([N+](=O)[O-])cccc12` has what pKa?
Result: 6.91

Request: Entry `CN(C)CCCNc1ncnc2cccc([N+](=O)[O-])c12` has what pKa?
Result: 4.05

Request: Entry `CNc1ccc([N+](=O)[O-])c2c(NCCCN(C)C)ccnc12` has what pKa?
Result: 4.22

Request: Entry `Cc1nc2ccccc2c(NCCCN(C)C)c1[N+](=O)[O-]` has what pKa?
Result: 5.35

Request: Entry `Cc1c([N+](=O)[O-])ccc2c(NCCCN(C)C)ccnc12` has what pKa?
Result: 6.71

Request: Entry `Cc1ccc2c(NCCCN(C)C)ccnc2c1[N+](=O)[O-]` has what pKa?
Result: 5.51

Request: Entry `COc1ccc([N+](=O)[O-])c2c(NCCCN(C)C)ccnc12` has what pKa?
Result: 6.76

Request: Entry `Cc1cc2nccc(NCCCN(C)C)c2cc1[N+](=O)[O-]` has what pKa?
Result: 7.38

Request: Entry `Cc1ccc([N+](=O)[O-])c2c(NCCCN(C)C)ccnc12` has what pKa?
Result: 6.84

Request: Entry `Cc1ccc2nccc(NCCCN(C)C)c2c1[N+](=O)[O-]` has what pKa?
Result: 6.15

* * *

Assay: physchem
Details: aqueous solution
Description: Compound was evaluated for quinoline pKa value in aqueous solution at 25 degree Celsius by spectrophotometry
Note to self: values exactly at 7 are class 1. So pKa at or above 7 is class 1, below is class 0.

Request: Please indicate if the recorded pKa for `CN(C)CCCNc1ccnc2cc([N+](=O)[O-])ccc12` meets or exceeds 7.
Result: class 0

Request: Please indicate if the recorded pKa for `CN(C)CCCNc1c([N+](=O)[O-])cnc2ccccc12` meets or exceeds 7.
Result: class 0

Request: Please indicate if the recorded pKa for `CN(C)CCCNc1ccnc2cccc([N+](=O)[O-])c12` meets or exceeds 7.
Result: class 0

Request: Please indicate if the recorded pKa for `CN(C)CCCNc1ccnc2ccccc12` meets or exceeds 7.
Result: class 1

* * *

Please respond with reported C50 for every item in the list.
Answer in µM, number only, no unit symbol.

Request: Which measured C50 belongs to `CN(C)CCN(C)c1ccnc2cccc([N+](=O)[O-])c12` , tested on Nucleic Acid?
Result: 3.9

Request: Which measured C50 belongs to `CN(C)CCCNc1ccnc2c([N+](=O)[O-])cccc12` , tested on Nucleic Acid?
Result: 1.2

Request: Which measured C50 belongs to `CN(C)CCCNc1ncnc2cccc([N+](=O)[O-])c12` , tested on Nucleic Acid?
Result: 4.3

Request: Which measured C50 belongs to `CN(C)CCCNc1ccnc2ccccc12` , tested on Nucleic Acid?
Result: 4.6

Request: Which measured C50 belongs to `CN(C)CCCNc1ccnc2cc([N+](=O)[O-])ccc12` , tested on Nucleic Acid?
Result: 0.9

Request: Which measured C50 belongs to `CN(C)CCCNc1c([N+](=O)[O-])cnc2ccccc12` , tested on Nucleic Acid?
Result: 5

Request: Which measured C50 belongs to `CN(C)CCCCNc1ccnc2cccc([N+](=O)[O-])c12` , tested on Nucleic Acid?
Result: 3.1

Request: Which measured C50 belongs to `Cc1ccc2c(NCCCN(C)C)ccnc2c1[N+](=O)[O-]` , tested on Nucleic Acid?
Result: 4.6

Request: Which measured C50 belongs to `Cc1nc2ccccc2c(NCCCN(C)C)c1[N+](=O)[O-]` , tested on Nucleic Acid?
Result: 8.6

Request: Which measured C50 belongs to `Cc1cnc2cccc([N+](=O)[O-])c2c1NCCCN(C)C` , tested on Nucleic Acid?
Result: 1

Request: Which measured C50 belongs to `CN(C)CCNc1ccnc2cccc([N+](=O)[O-])c12` , tested on Nucleic Acid?
Result: 1.5

Request: Which measured C50 belongs to `Cc1cc2nccc(NCCCN(C)C)c2cc1[N+](=O)[O-]` , tested on Nucleic Acid?
Result: 2.3

Request: Which measured C50 belongs to `Cc1ccc([N+](=O)[O-])c2c(NCCCN(C)C)ccnc12` , tested on Nucleic Acid?
Result: 3

Request: Which measured C50 belongs to `CN(C)CCCNc1ccnc2ccc([N+](=O)[O-])cc12` , tested on Nucleic Acid?
Result: 1

Request: Which measured C50 belongs to `Cc1ccc2nccc(NCCCN(C)C)c2c1[N+](=O)[O-]` , tested on Nucleic Acid?
Result: 3.1

Request: Which measured C50 belongs to `Cc1cc(NCCCN(C)C)c2c([N+](=O)[O-])cccc2n1` , tested on Nucleic Acid?
Result: 1.1

Request: Which measured C50 belongs to `Cc1c([N+](=O)[O-])ccc2c(NCCCN(C)C)ccnc12` , tested on Nucleic Acid?
Result: 2.9

Request: Which measured C50 belongs to `CN(C)CCCNc1ccnc2cccc([N+](=O)[O-])c12` , tested on Nucleic Acid?
Result: 1.1

From: ChEMBL document CHEMBL1125565
